# growth inhibition values compiled below
- run.description: NCI Yeast Anticancer Drug Screen. Data for the mec2-1 strain (AID 157)
- test.conditions: S. cerevisiae mec2-1 strain, at 50.0 µM, active compounds read high
The panel holds about 79,000 compounds, 15% with a hit somewhere; the sample as a whole holds those more often.
Give just the number in %; leave the unit off.

`Cc1ccc(S(=O)(=O)OCC23CCC(CO)(CC2)CC3)cc1` has a reported growth inhibition of -2.45

growth inhibition in this record for `COC(=O)c1cc(=O)c2c(=O)[nH]c(=O)[nH]c2[nH]1` : -1.25

Recorded result, `NCCNC(=O)c1ccccc1` , growth inhibition: 1.8

The recorded growth inhibition for `CCCCCCCCSC#N` is -11

// `O=C(NCCCl)Nc1[nH]c(=O)ncc1Br` : growth inhibition value = -12.7

====

This listing pairs compounds with measured growth inhibition.
- run.description: NCI Yeast Anticancer Drug Screen. Data for the cln2 rad14 strain (AID 165);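 note: 0% = growth equal to vehicle treated cultures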
- test.conditions: S. cerevisiae cln2 rad14 strain, at 50.0 µM, active compounds read high
The panel holds about 79,000 compounds, 15% with a hit somewhere; the sample as a whole holds those more often. Calls of active or inactive are those of the source. Rule as the data show it: active = growth inhibition above about 70%; inactive = the rest.

# count of solved cases: 3
smiles_text=Oc1ccc(Br)cc1C(=S)N1CCOCC1 result_type="growth inhibition" result="3.6% (inactive)"
smiles_text=Oc1c(Cl)c(Cl)c(O)c2ccccc12 result_type="growth inhibition" result="44.2% (inactive)"
smiles_text=CCc1ccccc1N1C(=O)C(=O)C(c2nc3ccccc3s2)C(=O)C1=O result_type="growth inhibition" result="15.5% (inactive)"

Would you kindly look at the next entry?
For record `CCCC(C(C)=O)C(C)=O` the listed growth inhibition is 0.3% (inactive)

====

- run.description: NCI Yeast Anticancer Drug Screen. Data for the cln2 rad14 strain (AID 165);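 note: 0% = growth equal to vehicle treated cultures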
- test.conditions: S. cerevisiae cln2 rad14 strain, at 50.0 µM, active compounds read high
This is part of a sample that, as a whole, favours compounds with a hit. Of some 79,000 tested, about 15% had one in any assay.
result.type: growth inhibition (%)
Hi! Could you send only the number? It should be in %, unit omitted.

molecule=O=C(N/N=C/c1cccc(F)c1)c1ccncc1 numeric_value=-23.9
molecule="Fc1ccc2c(c1)CC(CBr)O2 (stereo unspecified)" numeric_value=-23.9
molecule=O=C(O)c1cc(/C=C/c2ccccc2)ccc1[N+](=O)[O-] numeric_value=-33.6

Let us move to another entry and its growth inhibition.
The value of growth inhibition measured for the molecule `C[n+]1cc(I)cc2ccccc21` turned out to be -0.2

====

- run.description: NCI Yeast Anticancer Drug Screen. Data for the bub3 strain (AID 167)
- test.conditions: S. cerevisiae bub3 mutant strain, at 50.0 µM, active compounds read high
This is part of a sample that, as a whole, favours compounds with a hit. Of some 79,000 tested, about 15% had one in any assay.
Below is a list of entries, each paired with its recorded growth inhibition value.
Enter your answer as a number in %; do not include the unit.

// recorded growth inhibition for `Nc1ccc2cccc(O)c2c1` : 34.2

Documented growth inhibition of `CCC(C=NCCBr)(CCC(=O)OC)CCC(=O)OC` : 12.4

====

Below, each of the molecules is paired with its reported growth inhibition value.
- run.description: NCI Yeast Anticancer Drug Screen. Data for the mec2-1 strain (AID 157)
- test.conditions: S. cerevisiae mec2-1 strain, at 50.0 µM, active compounds read high
About 79,000 compounds went through this panel and 15% of them were active in at least one assay; those are over-represented in the sample as a whole.
Field: numeric (%). Do not append units.

molecule=CC(C)NC(=O)OCc1c(COC(=O)NC(C)C)c2n(c1-c1ccc(Cl)c(Cl)c1)CCS2(=O)=O result_type="growth inhibition" numeric_value=2.2
molecule="CCCC1SC(=S)N(c2ccc(Cl)cc2)C1=O (centres undefined)" result_type="growth inhibition" numeric_value=22.1
molecule=CCOc1c(N=Nc2ccccc2C)c(C)nn1C(N)=S result_type="growth inhibition" numeric_value=0.7
molecule="COC(=O)CNC(=O)C(Cc1ccc(OCc2ccccc2)cc1)NC(=O)OC(C)(C)C (centres undefined)" result_type="growth inhibition" numeric_value=11
molecule="COc1cc2c(cc1OC)C1Cc3ccc(OC)c(OC)c3C[N+]1([O-])CC2 (centres undefined)" result_type="growth inhibition" numeric_value=-16.8
molecule="Nc1[nH]c(=O)nc2c1ncn2C1OC(CO)C(O)C1O (centres undefined)" result_type="growth inhibition" numeric_value=-27.6
molecule=OCCN(CCO)c1ccc2c(c1)Cc1cc(Br)ccc1-2 result_type="growth inhibition" numeric_value=6
molecule="CCCCCCCCCCCCOP(=O)(O)OP(=O)(O)OCC1OC(n2ccc(N)nc2=O)CC1O (centres undefined)" result_type="growth inhibition" numeric_value=21.5
molecule=S=C1N(c2ccccc2)CCN1c1ccccc1 result_type="growth inhibition" numeric_value=-14.9
molecule=CC(C)c1ccc(OC(=O)N(c2ccccc2)c2ccccc2)cc1 result_type="growth inhibition" numeric_value=15

// growth inhibition value for CC1OC(OCC2OC(Oc3c(-c4ccc(O)cc4)oc4cc(O)cc(O)c4c3=O)C(OC3OC(C)C(O)C(O)C3O)C(O)C2O)C(O)C(O)C1O (centres undefined) : -21.2

Sure, the documented growth inhibition for `O=C(Nc1ccc(Br)cc1C(F)(F)F)C(F)(F)F` is -5.7

The recorded growth inhibition for `Cn1c(=O)c2c(=O)n3ccccc3nc2n(C)c1=O` is 48

# molecule NC(=O)SCC(N)C(=O)O (centres undefined) ; its growth inhibition = -21.4

Just so you know, measured growth inhibition for `COc1cc2c(c(OC)c1OC)-c1ccc(S(C)(=O)=O)c(=O)cc1[C@@H](NC(C)=O)CC2` came out at -7.1
